Provenance of the data: the supplement of paper PMC8671470

System: myeloid leukemia patient primary cells Pat.3
Experiment: cell viability (% survival relative to DMSO control); higher = less cytotoxic
Conditions: 1000 nM; 72 h
Metric: cell viability

# annotated cases, reported cell viability shown
CO[C@H]1C[C@@H]2CC[C@@H](C)[C@@](O)(O2)C(=O)C(=O)N2CCCC[C@H]2C(=O)O[C@H]([C@H](C)C[C@@H]2CC[C@@H](OCCO)[C@H](OC)C2)CC(=O)[C@H](C)/C=C(\C)[C@@H](O)[C@@H](OC)C(=O)[C@H](C)C[C@H](C)/C=C/C=C/C=C/1C [Everolimus]: 42.3%
Cn1cc(-c2ccncc2)c(-c2ccc(OCc3ccc4ccccc4n3)cc2)n1: 48.8%
Cc1cc2c(C(C)C)c(O)c(O)c(C=O)c2c(O)c1-c1c(C)cc2c(C(C)C)c(O)c(O)c(C=O)c2c1O [Gossypol]: < 0%
c1cc(-c2cnn3cc(-c4ccc(OCCN5CCCCC5)cc4)cnc23)ccn1 [Dorsomorphin]: 86.3%

Now look at this entry.
Requested read-out: cell viability. Entry: O=C(/C=C/c1ccc(O)c(O)c1)OCCc1ccccc1 [Caffeic acid phenethyl ester] 41.7%
